Values from ChEMBL document CHEMBL1146940

target: Angiotensin-converting enzyme (Bos taurus); assay: Inhibition of ACE in bovine kidney; parameters: concentration or dose not given beside the values; settings: concentration not given here
Square brackets hold non-standard residues; d marks the D form. Peptide text beside a SMILES is read from it. NMeW = CN[C@@H](Cc1c[nH]c2ccccc12)C(=O)O; Dip = N[C@H](C(=O)O)C(c1ccccc1)c1ccccc1; Cha = N[C@@H](CC1CCCCC1)C(=O)O; Orn = NCCC[C@H](N)C(=O)O
assayReadout: inhibition (%)

>>> testvalue("NCCC[C@H](NC(=O)[C@@H](N)CC1CCCCC1)C(=O)N1CCC[C@H]1C(=O)O (H-[Cha]-[Orn]-Pro-OH)")
30.8
>>> testvalue("CN[C@@H](Cc1c[nH]c2ccccc12)C(=O)N[C@@H](CCCCN)C(=O)N1CCC[C@H]1C(=O)O (H-[NMeW]-Lys-Pro-OH)")
39.1

(1) NCCCC[C@H](NC(=O)[C@@H](N)C(c1ccccc1)c1ccccc1)C(=O)N1CCC[C@H]1C(=O)O (H-[Dip]-Lys-Pro-OH)
(2) CN[C@@H](Cc1c[nH]c2ccccc12)C(=O)N[C@@H](CCCN)C(=O)N1CCC[C@H]1C(=O)O (H-[NMeW]-[Orn]-Pro-OH)
Of the two listed items, 1 and 2 , which carries the larger inhibition figure? Please reply using the label of the selected record.
2
(2: 63.6%, 1: 33.8%)
